- System: UO-31 renal
- run description: NCI tumour cell line growth inhibition, 48 h
Residues, ends and D or L forms follow the SMILES beside them. *: point of attachment. Boc = CC(C)(C)OC(=O)*; OBn = c1ccc(CO*)cc1
Hi there, I'd appreciate the recorded TGI for every entry that follows.

Give the reported TGI for this compound. COC(=O)/C=C/C1C2C3(CCC(C)C12C)OCCS3 (stereo not given)
> 100 µM

State its TGI: CC(=O)NCCC1CNc2ccccc21 (stereo not given)
> 100 µM

Give TGI for the following compound: "N#Cc1c(-c2ccccc2)cc(-c2ccccc2)n(CCCC(=O)NO)c1=O"
2.3 µM

Note down TGI recorded for "CC(C)(C)c1ccc(C(C)(C)C)c(N2C(=O)[C@@H]3[C@@H]4C=C[C@@H](C4)[C@]3(C)C2=O)c1"
> 100 µM

Recall and state the measured TGI for "CC(=O)Oc1c(-c2ccccc2)oc2ccccc12" .
3.96 µM

Input "CCOC(=O)C(=O)/C(=C/n1c(=S)[nH]c2ccc([N+](=O)[O-])cc21)C(=O)OCC" , output reported TGI.
> 100 µM

Name the recorded TGI of the item "Cc1nc2ccccn2c1N=Nc1ccc(C(=O)NN)cc1" in your answer.
> 100 µM

Give me measured TGI, please, for this compound: C=CCOC(C)n1c(C)cc(=O)n(C(C)OCC=C)c1=O (stereo not given)
> 100 µM

State, in one line, measured TGI of CC(C)CC(NC(=O)OC(C)(C)C)C(=O)NC(CC(=O)OCc1ccccc1)C(N)=O (stereo not drawn) (Boc-Leu-Asp(OBn)-NH2; configuration not given here)
> 100 µM

Give a short answer stating reported TGI for "COc1ccc(CC#C/C=C/C(=O)NCC(C)C)cc1" .
> 100 µM
